The compounds below each have a reported pIC50 tested on Tyrosine-protein phosphatase non-receptor type 1 (Homo sapiens, UniProt P18031); the values come from various publications.
Sequence (P18031 whole entry): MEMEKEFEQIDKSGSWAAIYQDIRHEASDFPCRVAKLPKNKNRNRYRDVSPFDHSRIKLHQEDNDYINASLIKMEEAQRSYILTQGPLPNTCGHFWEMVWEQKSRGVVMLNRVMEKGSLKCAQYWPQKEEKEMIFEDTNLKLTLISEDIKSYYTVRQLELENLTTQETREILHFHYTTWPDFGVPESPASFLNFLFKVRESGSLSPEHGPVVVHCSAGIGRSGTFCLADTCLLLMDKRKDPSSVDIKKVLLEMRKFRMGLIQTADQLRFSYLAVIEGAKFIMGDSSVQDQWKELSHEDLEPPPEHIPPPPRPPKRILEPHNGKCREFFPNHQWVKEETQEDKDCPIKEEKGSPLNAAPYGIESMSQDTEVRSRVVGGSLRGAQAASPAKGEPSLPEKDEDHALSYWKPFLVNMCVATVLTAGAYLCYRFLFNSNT
Answers are plain numbers, as −log10 of the molar value.

C[C@H]1[C@H](C)CC[C@]2(C(=O)O)CC[C@]3(C)C(=CC[C@@H]4[C@@]5(C)C[C@@H](O)[C@H](O)[C@@](C)(CO)[C@@H]5[C@H](O)C[C@]43C)[C@H]12 ... 4.91
CC1=NN(c2cccc(Cl)c2)C(=O)/C1=C\c1ccc(-c2ccc(C(=O)O)c(Cl)c2)o1 ... 4.71
O=Cc1coc2ccc(Br)cc2c1=O ... 4.70
CC(=O)O[C@@H]1[C@@H](O)[C@H](Oc2c(O)cc(O)cc2/C=C/c2ccc(O)cc2)O[C@H](CO)[C@H]1O ... 4.42
CCC(=O)Oc1ccc(OC(=O)CC)c(C[C@]2(C)[C@@H](C)CC[C@]3(C)C(C)=CCC[C@@H]23)c1 ... 5.06
O=C1Oc2cc(O)c3c(c2[C@@]12c1c(O)cc(O)cc1O[C@@H]2c1ccc(O)cc1)O[C@H](c1ccc(O)cc1)[C@@H](O)C3 ... 4.77

Task: Returns the measured pIC50 for the input compound. Input: `COc1cc(/C=C2\S/C(=N\c3ccccc3)N(Cc3ccc(C(=O)O)cc3)C2=O)ccc1O`
Output: 4.47
